Target: Kallikrein-related peptidase 5 (KLK5) (UniProt Q9Y337 23-293)
Sequence (Q9Y337 23-293): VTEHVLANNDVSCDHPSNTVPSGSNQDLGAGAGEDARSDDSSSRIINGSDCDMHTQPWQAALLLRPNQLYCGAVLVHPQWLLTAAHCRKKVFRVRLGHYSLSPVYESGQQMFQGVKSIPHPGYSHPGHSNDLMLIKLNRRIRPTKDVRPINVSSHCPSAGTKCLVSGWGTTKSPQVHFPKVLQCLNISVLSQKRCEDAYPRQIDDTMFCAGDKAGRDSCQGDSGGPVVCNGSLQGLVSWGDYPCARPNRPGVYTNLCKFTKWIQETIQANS
Assay: enzyme inhibition assay (fluorogenic substrate); inhibition of KLK5 activity by the peptide, fluorogenic substrate Boc-VPR-AMC, n = 3; conditions in the Supporting Information
Settings: both partners purified
Bridge positions count the residues as written; N and C are the ends.
Measure: pIC50
# pIC50: negative log10 of molar concentration; output just the value

Inquiry: Reported pIC50, binder cyclo(GFCTRSNPPECWPN) (disulfide 3-11 (inferred), SFTI scaffold grafted with residues of a LEKTI domain, glutamic acid at position 10; source: synthetic peptide (hydrazide peptide, cyclised via native chemical ligation, oxidised, RP-HPLC purified)) [LEKTI-grafted SFTI analogue, lead 7] : ____
Reply text: 7.85

Inquiry: Reported pIC50, binder cyclo(GFCTRSNPPHCWPN) (disulfide 3-11 (inferred), scaffold of analogue 2 grafted with residues of a LEKTI domain, serine kept at P1'; source: synthetic peptide (Fmoc solid-phase synthesis, cyclised via N to S acyl shift, oxidised, RP-HPLC purified)) [SFTI analogue 5] : ____
Reply text: 7.51

Inquiry: Reported pIC50, binder cyclo(GFCHREYPPHCWPN) (disulfide 3-11 (inferred), scaffold of analogue 2 grafted with residues of a LEKTI or LEKTI-like domain; source: synthetic peptide (Fmoc solid-phase synthesis, cyclised via N to S acyl shift, oxidised, RP-HPLC purified)) [SFTI analogue 4] : ____
Reply text: 5.83

Inquiry: Reported pIC50, binder cyclo(GFCTRENPPHCWPN) (disulfide 3-11 (inferred), scaffold of analogue 2 grafted with residues of a LEKTI domain; source: synthetic peptide (Fmoc solid-phase synthesis, cyclised via N to S acyl shift, oxidised, RP-HPLC purified)) [SFTI analogue 3] : ____
Reply text: 5.74

Inquiry: Reported pIC50, binder cyclo(GFCHRSYPPECWPN) (disulfide 3-11 (inferred), SFTI scaffold grafted with residues of a LEKTI or LEKTI-like domain, glutamic acid at position 10; also called compound 8; source: synthetic peptide (hydrazide peptide, cyclised via native chemical ligation, oxidised, RP-HPLC purified)) [SFTI analogue 8] : ____
Reply text: 8.07

Inquiry: Reported pIC50, binder cyclo(GFCHRSYPPHCWPN) (disulfide 3-11 (inferred), scaffold of analogue 2 grafted with residues of a LEKTI or LEKTI-like domain, serine kept at P1'; source: synthetic peptide (Fmoc solid-phase synthesis, cyclised via N to S acyl shift, oxidised, RP-HPLC purified)) [SFTI analogue 6] : ____
Reply text: 6.94
